testedTarget: T1, Nluc-IL23R fusion protein (human, UniProt Q5VWK5 22-629)
T1 construct: range 22-629; Stably expressed in HEK293 cells; also called hIL-23R; human IL-23R fused to a Nanoluc luciferase enzyme; not shown: Nanoluc luciferase (Promega N1371 plasmid) at the N-terminus
T1 sequence (looked up): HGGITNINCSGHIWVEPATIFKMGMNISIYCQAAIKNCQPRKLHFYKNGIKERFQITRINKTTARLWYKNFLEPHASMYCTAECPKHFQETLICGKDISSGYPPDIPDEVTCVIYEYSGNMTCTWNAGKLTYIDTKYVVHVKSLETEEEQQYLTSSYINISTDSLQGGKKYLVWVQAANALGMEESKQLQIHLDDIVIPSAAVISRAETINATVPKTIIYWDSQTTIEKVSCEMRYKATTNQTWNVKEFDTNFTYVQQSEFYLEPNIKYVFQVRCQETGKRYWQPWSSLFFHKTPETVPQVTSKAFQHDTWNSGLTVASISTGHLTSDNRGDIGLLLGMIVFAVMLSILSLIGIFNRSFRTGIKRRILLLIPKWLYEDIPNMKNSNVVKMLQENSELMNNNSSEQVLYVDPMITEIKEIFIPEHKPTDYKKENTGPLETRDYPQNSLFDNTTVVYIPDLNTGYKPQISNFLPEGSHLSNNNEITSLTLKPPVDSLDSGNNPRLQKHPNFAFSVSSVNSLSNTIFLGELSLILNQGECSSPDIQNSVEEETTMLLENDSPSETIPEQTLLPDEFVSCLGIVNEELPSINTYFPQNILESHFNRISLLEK
method: BRET displacement of TAMRA-labelled peptide, Nluc-IL23R membranes
*1 amine or outer side, *2 acyl side, *3 side chain or, on linkers, in order; H or OH if unused. Bridges are numbered along the chain shown (N, C = ends). [ ]: non-standard residue; d: D form. 2Nal = N[C@@H](Cc1ccc2ccccc2c1)C(=O)O; CH2COCH2 = O=C(C[*:1])C[*:2]; 3Amb = NCc1cccc(C(=O)O)c1
Assignment: determine reported Ki for the given binders.
Value and unit, in that order.

Enquiry: Which Ki value is on record for [3Amb]SCWQCW[2Nal]LER-NH2 (lactam N-10; linker 3-6 via CH2COCH2) [Compound 37] ?
Return: 9.86 nM

Enquiry: Which Ki value is on record for Ac-KSCWQCW[2Nal]LER-NH2 (lactam 1-10; linker 3-6 via CH2COCH2) [Compound 18] ?
Return: 2.85 nM

Attribution: patent US20250154198A1
